Biological target: NAD-dependent protein deacetylase sirtuin-3, mitochondrial (Homo sapiens)
Assay: Inhibition of human N-terminal His-tagged SIRT3 (102 to 399 residues) expressed in Escherichia coli at 100 uM using p53 (Gln-Pro-Lys-Lys(Ac)) (317 to 320 residues) as substrate incubated for 3 hrs measured up to 30 mins by fluorescence assay relative to control
// values below are reported inhibition
Give the quantity in %, number only.

*Q* State the recorded inhibition for this entry: `O=C(CNC(=O)c1ccccc1Nc1cccc(OCCc2ccccc2)c1)NCCCC[C@@H]1NC(=O)CNC1=O`
*A* 17

*Q* State the recorded inhibition for this entry: `Cc1cc(C)nc(SCC(=O)Nc2cccc(Nc3ccccc3C(N)=O)c2)n1`
*A* 80

*Q* State the recorded inhibition for this entry: `C[C@H](NC(=O)[C@H](CCCCNC(=O)CNC(=O)c1ccccc1Nc1cccc(OCCc2ccccc2)c1)NC(=O)OCc1ccccc1)C(N)=O`
*A* 61

*Q* State the recorded inhibition for this entry: `NC(=O)c1ccccc1Nc1cccc(OCCc2ccccc2)c1`
*A* 17

---

Target: NAD-dependent protein deacetylase sirtuin-1 (Homo sapiens)
Sequence (whole entry): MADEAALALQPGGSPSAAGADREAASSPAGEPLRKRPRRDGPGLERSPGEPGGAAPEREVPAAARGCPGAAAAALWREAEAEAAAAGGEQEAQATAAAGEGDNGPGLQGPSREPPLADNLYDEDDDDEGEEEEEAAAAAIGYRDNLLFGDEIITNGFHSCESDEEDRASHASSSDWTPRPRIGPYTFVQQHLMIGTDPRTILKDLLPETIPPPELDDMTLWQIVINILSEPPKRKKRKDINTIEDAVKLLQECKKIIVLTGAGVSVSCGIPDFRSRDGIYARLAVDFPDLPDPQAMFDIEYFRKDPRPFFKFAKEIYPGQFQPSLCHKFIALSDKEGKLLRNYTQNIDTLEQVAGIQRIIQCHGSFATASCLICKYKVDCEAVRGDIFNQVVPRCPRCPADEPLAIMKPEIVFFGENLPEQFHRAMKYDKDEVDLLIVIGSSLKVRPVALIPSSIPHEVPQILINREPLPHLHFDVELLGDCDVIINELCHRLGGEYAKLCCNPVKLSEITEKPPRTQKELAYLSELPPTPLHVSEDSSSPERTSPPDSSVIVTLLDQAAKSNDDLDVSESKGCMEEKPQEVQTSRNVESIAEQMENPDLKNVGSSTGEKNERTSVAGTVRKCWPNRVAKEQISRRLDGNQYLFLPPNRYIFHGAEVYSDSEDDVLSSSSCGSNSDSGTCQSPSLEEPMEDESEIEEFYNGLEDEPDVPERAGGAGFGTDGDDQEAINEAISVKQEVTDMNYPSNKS
Test: Inhibition of human N-terminal His-tagged SIRT1 expressed in Escherichia coli at 50 uM using p53 (Arg-His-Lys-Lys(Ac)) (379 to 382 residues) as substrate incubated for 3 hrs measured up to 30 mins by fluorescence assay relative to control
Param threshold (8%) applies to inhibition; output 1.0 when value >= threshold, 0.0 when value < threshold.

*Q* Answer whether inhibition of `CC(C)(C)OC(=O)NCCCCCNC(=O)CNC(=O)c1ccccc1Nc1cccc(OCCc2ccccc2)c1` is greater than or equal to 8%.
*A* 1.0

*Q* Answer whether inhibition of `C#CCNC(=O)c1ccccc1Nc1cccc(OCCc2ccccc2)c1` is greater than or equal to 8%.
*A* 1.0

*Q* Answer whether inhibition of `CONC(=O)c1ccccc1Nc1cccc(OCCc2ccccc2)c1` is greater than or equal to 8%.
*A* 0.0

*Q* Answer whether inhibition of `O=C(CNC(=O)c1ccccc1Nc1cccc(OCCc2ccccc2)c1)NCCCC[C@@H]1NC(=O)CNC1=O` is greater than or equal to 8%.
*A* 1.0

*Q* Answer whether inhibition of `COC(=O)CNC(=O)c1ccccc1Nc1cccc(OCCc2ccccc2)c1` is greater than or equal to 8%.
*A* 1.0

Others:
*Q* Answer whether inhibition of `CCCCNC(=O)c1ccccc1Nc1cccc(OCCc2ccccc2)c1` is greater than or equal to 8%.
*A* 0.0

*Q* Answer whether inhibition of `NC(=O)c1ccccc1Nc1cccc(OCCc2ccc3ccccc3c2)c1` is greater than or equal to 8%.
*A* 0.0

*Q* Answer whether inhibition of `O=C(NO)c1ccccc1Nc1cccc(OCCc2ccccc2)c1` is greater than or equal to 8%.
*A* 1.0

*Q* Answer whether inhibition of `CN(C)CCNC(=O)c1ccccc1Nc1cccc(OCCc2ccccc2)c1` is greater than or equal to 8%.
*A* 1.0
